Provenance of the data: patent US9334264B2

- target system: NAMPT (human, recombinant, C-terminally His-tagged) (Homo sapiens, UniProt P43490)
- Sequence (P43490 whole entry): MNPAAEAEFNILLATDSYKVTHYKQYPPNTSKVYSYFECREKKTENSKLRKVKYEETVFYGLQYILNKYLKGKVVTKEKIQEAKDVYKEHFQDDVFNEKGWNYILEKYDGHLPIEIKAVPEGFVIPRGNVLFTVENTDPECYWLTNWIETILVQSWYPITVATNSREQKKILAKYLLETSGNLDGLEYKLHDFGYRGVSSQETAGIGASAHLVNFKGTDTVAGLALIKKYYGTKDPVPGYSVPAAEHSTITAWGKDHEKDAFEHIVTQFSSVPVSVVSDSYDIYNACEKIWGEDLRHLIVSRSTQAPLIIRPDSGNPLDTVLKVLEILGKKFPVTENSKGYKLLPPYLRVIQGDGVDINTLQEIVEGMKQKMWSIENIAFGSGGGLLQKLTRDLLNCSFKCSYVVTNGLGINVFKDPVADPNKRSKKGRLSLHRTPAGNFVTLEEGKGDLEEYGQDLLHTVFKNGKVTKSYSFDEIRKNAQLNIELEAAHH
- assay overview: Time-Resolved Fluorescence Resonance Energy Transfer (TR-FRET) Binding Assay of NAMPT
- settings: absence of substrates; 6.8 nM NAMPT, 200 nM probe, equilibrated 3 hours
quantity measured: IC50 (µM)
Kindly answer with a numeric value in µM, unit omitted.

Example entries begin here.
[[record]]
compound = "COCCC(=O)N(Cc1ccc(C)nc1)c1ncc(C(=O)NCCCn2ccnc2)s1 [Example 113]"
target_system = "NAMPT (human, recombinant, C-terminally His-tagged) (Homo sapiens, UniProt P43490)"
quantity_measured = "IC50"
output_unit = "µM"
assay_result = 4.99

[[record]]
compound = "CCN1CC(CN(C(=O)CCOC)c2ncc(C(=O)NCCCn3ccnc3)s2)CC1=O (stereo not drawn) [Example 193]"
target_system = "NAMPT (human, recombinant, C-terminally His-tagged) (Homo sapiens, UniProt P43490)"
quantity_measured = "IC50"
output_unit = "µM"
assay_result = 6.06

[[record]]
compound = "O=C(NCCCn1ccnc1)c1cnc(N(Cc2ccc(F)cc2)C(=O)CN2CCCC(O)C2)s1 (stereo not drawn) [Example 41]"
target_system = "NAMPT (human, recombinant, C-terminally His-tagged) (Homo sapiens, UniProt P43490)"
quantity_measured = "IC50"
output_unit = "µM"
assay_result = 8.5

[[record]]
compound = "O=C(NCCCn1ccnc1)c1cnc(N2C[C@H](CN3C(=O)c4ccccc4C3=O)OC2=O)s1 [Example 212]"
target_system = "NAMPT (human, recombinant, C-terminally His-tagged) (Homo sapiens, UniProt P43490)"
quantity_measured = "IC50"
output_unit = "µM"
assay_result = 5.71

[[record]]
compound = "N#Cc1ccc(CCN(C(=O)CC2CCOCC2)c2ncc(C(=O)NCCCn3ccnc3)s2)cc1 [Example 49]"
target_system = "NAMPT (human, recombinant, C-terminally His-tagged) (Homo sapiens, UniProt P43490)"
quantity_measured = "IC50"
output_unit = "µM"
assay_result = 1.69


Please look at the following compound next.
Give its IC50 value. Item: O=C(NCCCn1ccnc1)c1cnc(N(Cc2ccc(F)cc2)C(=O)CN2CCN3CCCC3C2)s1 (stereo not drawn) [Example 33] 8.95
